All values here come from patent US10906929B2.

test system: MCF7; assay: Cytostatic activity, cell counting (Coulter counter); format: cell-based; conditions: Homo sapiens, MCF7, 72 h, read-out: IC50 MCF7
recorded_metric: IC50 (µM)
# value in µM; strip the unit string

[[record]]
compound = "C[C@H](NP(=O)(OC[C@H]1O[C@@H](n2cnc3c(N)nc(Cl)nc32)CC1O)Oc1ccccc1)C(=O)OCc1ccccc1 (some centres unmarked) [Y, reference compound]"
unit_of_measure = "µM"
experimental_result = 2.1


Consider the additional compound presented here.
For the compound shown here, C[C@H](NP(=O)(Oc1ccccc1)OC1C[C@H](n2cnc3c(N)nc(Cl)nc32)O[C@@H]1CO)C(=O)OCc1ccccc1 (some centres unmarked) [Compound 19] , give the reported IC50. 5.2
